Could you please report measured T0 : the transmission before exposure to UV for the items listed next?
assay: Photochromic properties of lens samples (2 mm, compound in the mass of cross-linked matrix I or II) exposed to UV radiation from a xenon lamp; assay type: physicochemical; conditions: lens sample, Matrix II (50/50 D121 / PEGDMA 400 copolymer)
Write the value in % as a bare number.

# input # T0 : the transmission before exposure to UV lookup, item COc1ccc(C2(c3ccc(OC)c(OC)c3)C=Cc3c(c(C(=O)N4CCOCC4)cc4ccccc34)O2)c(OC)c1 (stereo not drawn) [Example 7]
# output 88.1

# input Another compound to check: COc1ccc(C2(c3ccc(OC)cc3OC)C=Cc3c(c(C(=O)N4CCc5ccccc54)cc4ccccc34)O2)c(OC)c1 [Example 5]
# output 84.0

# input Here is the next compound: COc1ccc(C2(c3ccc(OC)cc3OC)C=Cc3c(c(C(=O)N4CCOCC4)cc4ccccc34)O2)cc1 (stereo not drawn) [Example 6]
# output 84.0

# input Same for COc1ccc(C2(c3ccc(OC)cc3OC)C=Cc3c(c(C(=O)N4CCCCC4)cc4ccccc34)O2)c(OC)c1 [Example 9]
# output 89.0

# input Item: COc1ccc(C2(c3ccc(N4CCCCC4)cc3)C=Cc3c(c(C(=O)N4CCCCC4)cc4ccccc34)O2)c(OC)c1 (stereo not drawn) [Example 8]
# output 85.8

# input Entry C1=CC(c2ccccc2)(c2ccccc2)Oc2ccc3ccccc3c21 [Control, 3,3-bisphenyl-3H-naphtho[2,1-b]pyran, reference compound] please
# output 88

* * *

Assay: Photochromic properties of lens samples (2 mm, compound in the mass of cross-linked matrix I or II) exposed to UV radiation from a xenon lamp
Assay type: physicochemical
Conditions: lens sample, Matrix II (50/50 D121 / PEGDMA 400 copolymer)
Source text: The matrix used in accordance with the present invention may be one of two types: A homopolymer of the monomer DIACRYL 121 (D121 : tetraethoxylated Bisphenol A dimethylmethacrylate), marketed by Akzo Nobel; or A copolymer comprised of a 50/50 mixture by weight of D121 (as above) and polyethylene glycol dimethacrylate (Molecular weight = 400) (PEGDMA 400). […]
Measured Parameter: OID : optical induced density (D∞-D0)
API note: the answer field is a bare number with no unit suffix.

# input What value of OID : optical induced density (D∞-D0) has been reported for the following compound? `COc1ccc(C2(c3ccc(OC)cc3OC)C=Cc3c(c(C(=O)N4CCc5ccccc54)cc4ccccc34)O2)c(OC)c1`
# output 1.634

# input And what about the compound COc1ccc(C2(c3ccc(OC)c(OC)c3)C=Cc3c(c(C(=O)N4CCOCC4)cc4ccccc34)O2)c(OC)c1 (stereo not drawn) ?
# output 0.805

# input Similarly, COc1ccc(C2(c3ccc(OC)cc3OC)C=Cc3c(c(C(=O)N4CCOCC4)cc4ccccc34)O2)cc1 (stereo not drawn) ?
# output 2.146

# input Same read-out for `COc1ccc(C2(c3ccc(OC)cc3OC)C=Cc3c(c(C(=O)N4CCCCC4)cc4ccccc34)O2)c(OC)c1` ?
# output 0.765

# input Now consider C1=CC(c2ccccc2)(c2ccccc2)Oc2ccc3ccccc3c21 [Control, 3,3-bisphenyl-3H-naphtho[2,1-b]pyran, reference compound] and answer again.
# output 0.280

# input Repeat with COc1ccc(C2(c3ccc(N4CCCCC4)cc3)C=Cc3c(c(C(=O)N4CCCCC4)cc4ccccc34)O2)c(OC)c1 (stereo not drawn)
# output 0.769

Value source: patent EP1038870A1
